system: platelets; test: Platelet Aggregation Inhibition Activity (gel-filtered platelets, thrombin or ADP agonist, light transmission); type: cell-based; conditions: 37° C., unit inferred
pIC50: −log10 of the molar value.
observable: pIC50

[
  {
    "smiles string": "Fc1ccc(-c2csc(Nc3nc4c(c(-c5ccccc5)n3)CNCC4)n2)cc1",
    "assay system": "platelets",
    "observable": "pIC50",
    "observed result": 5.24
  },
  {
    "smiles string": "c1ccc(-c2csc(Nc3nc4c(c(-c5ccccc5)n3)CNCC4)n2)cc1",
    "assay system": "platelets",
    "observable": "pIC50",
    "observed result": 5.10
  },
  {
    "smiles string": "Clc1ccc(-c2csc(Nc3nc4c(c(-c5ccccc5)n3)CNCC4)n2)cc1",
    "assay system": "platelets",
    "observable": "pIC50",
    "observed result": 5.21
  }
]

====

target: fibrinogen receptor of blood platelets (activated platelets) (Homo sapiens, UniProt P05106+P08514); construct: from tissue; experiment: Fibrinogen Binding (125I-fibrinogen binding to thrombin-activated platelets); conditions: 30 μM, 125I-fibrinogen 0.15 μM
Sequence (P08514 32-887 limits assumed): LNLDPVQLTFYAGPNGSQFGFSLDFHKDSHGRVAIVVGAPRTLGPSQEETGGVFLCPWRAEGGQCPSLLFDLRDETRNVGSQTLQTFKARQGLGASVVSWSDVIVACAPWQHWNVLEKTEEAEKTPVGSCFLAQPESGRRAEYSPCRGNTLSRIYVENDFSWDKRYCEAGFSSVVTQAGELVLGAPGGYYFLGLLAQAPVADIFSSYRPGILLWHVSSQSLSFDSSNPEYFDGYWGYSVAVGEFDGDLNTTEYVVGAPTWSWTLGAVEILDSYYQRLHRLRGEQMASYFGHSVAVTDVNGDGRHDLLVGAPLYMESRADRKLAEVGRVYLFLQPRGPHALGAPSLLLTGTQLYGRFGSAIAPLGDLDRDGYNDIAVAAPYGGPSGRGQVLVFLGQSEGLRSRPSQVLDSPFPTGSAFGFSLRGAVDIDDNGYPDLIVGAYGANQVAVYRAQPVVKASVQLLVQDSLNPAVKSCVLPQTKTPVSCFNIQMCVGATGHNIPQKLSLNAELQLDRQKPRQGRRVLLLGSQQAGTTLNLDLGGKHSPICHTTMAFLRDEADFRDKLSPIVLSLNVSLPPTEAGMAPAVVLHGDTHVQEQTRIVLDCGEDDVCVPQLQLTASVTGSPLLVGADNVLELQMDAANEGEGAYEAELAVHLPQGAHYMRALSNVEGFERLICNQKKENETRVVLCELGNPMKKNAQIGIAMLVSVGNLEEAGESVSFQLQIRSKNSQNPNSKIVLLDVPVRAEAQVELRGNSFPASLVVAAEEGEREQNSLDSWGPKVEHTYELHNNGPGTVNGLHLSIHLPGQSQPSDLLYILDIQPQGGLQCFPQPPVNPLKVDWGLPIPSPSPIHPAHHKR
Sequence (P08514 891-1039 partner limits assumed): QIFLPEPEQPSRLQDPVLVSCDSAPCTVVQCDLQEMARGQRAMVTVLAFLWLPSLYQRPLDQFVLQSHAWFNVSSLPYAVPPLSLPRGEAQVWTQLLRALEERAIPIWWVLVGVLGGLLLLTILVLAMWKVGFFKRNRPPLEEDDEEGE
Sequence (P05106 27-788): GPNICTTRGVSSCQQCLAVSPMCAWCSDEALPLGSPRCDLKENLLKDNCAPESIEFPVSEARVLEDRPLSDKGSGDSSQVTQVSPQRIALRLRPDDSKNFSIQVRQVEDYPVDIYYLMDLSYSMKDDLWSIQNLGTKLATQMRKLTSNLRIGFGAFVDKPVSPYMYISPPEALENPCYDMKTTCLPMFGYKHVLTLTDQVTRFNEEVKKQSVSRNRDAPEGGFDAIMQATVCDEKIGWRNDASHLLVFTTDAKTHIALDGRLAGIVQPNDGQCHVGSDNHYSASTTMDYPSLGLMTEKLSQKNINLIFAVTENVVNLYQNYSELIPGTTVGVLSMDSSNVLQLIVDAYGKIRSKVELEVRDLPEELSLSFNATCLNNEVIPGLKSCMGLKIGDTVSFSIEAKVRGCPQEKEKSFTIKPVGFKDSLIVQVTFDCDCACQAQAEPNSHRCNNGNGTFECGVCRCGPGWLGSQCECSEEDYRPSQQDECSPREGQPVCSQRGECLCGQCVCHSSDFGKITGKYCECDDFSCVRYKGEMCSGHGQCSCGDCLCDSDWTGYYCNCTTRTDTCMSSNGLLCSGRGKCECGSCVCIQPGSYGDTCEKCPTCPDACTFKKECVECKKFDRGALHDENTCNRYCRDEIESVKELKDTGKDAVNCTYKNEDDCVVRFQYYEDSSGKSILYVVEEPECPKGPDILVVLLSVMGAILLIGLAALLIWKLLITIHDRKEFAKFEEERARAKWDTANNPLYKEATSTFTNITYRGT
observable: inhibition at 30 µM (%)

[
  {
    "smiles string": "c1ccc(-c2csc(Nc3nc4c(c(-c5ccccc5)n3)CNCC4)n2)cc1",
    "inhibition at 30 µM (%)": 69
  },
  {
    "smiles string": "Cc1ccc(-c2csc(Nc3nc4c(c(-c5ccccc5)n3)CNCC4)n2)cc1",
    "inhibition at 30 µM (%)": 28
  },
  {
    "smiles string": "Fc1ccc(-c2csc(Nc3nc4c(c(-c5ccccc5)n3)CNCC4)n2)cc1",
    "inhibition at 30 µM (%)": 95
  }
]

a: Cc1ccc(-c2csc(Nc3nc4c(c(-c5ccccc5)n3)CN(C(=O)CCN3CCN(C)CC3)CC4)n2)cc1
b: Clc1ccc(-c2csc(Nc3nc4c(c(-c5ccccc5)n3)CNCC4)n2)cc1
Input line: Please indicate which item has the smaller measured inhibition at 30 µM: a versus b Kindly state the label of the option you pick.
Output line: a
